test system: Klebsiella pneumoniae strain 1139; assay: Checkerboard assay (FICI) with antibiotics, K. pneumoniae; format: cell-based; details: checkerboard, in combination with Chp6-M1
observed-property: Antibiotic FIC
Keep it simple and answer with nothing but the number.

[[record]]
compound = "C[C@@H](O)[C@H]1C(=O)N2C(C(=O)O)=C(S[C@@H]3CN[C@H](C(=O)N(C)C)C3)[C@H](C)[C@H]12 [meropenem, reference compound]"
value = 0.25

[[record]]
compound = "NC[C@H]1O[C@H](O[C@H]2[C@H](O)[C@@H](O[C@H]3O[C@H](CO)[C@@H](O)[C@H](N)[C@H]3O)[C@H](N)C[C@@H]2N)[C@H](N)C[C@@H]1O [tobramycin, reference compound]"
value = 0.125

[[record]]
compound = "CC[C@H]1OC(=O)[C@H](C)[C@@H](O[C@H]2C[C@@](C)(OC)[C@@H](O)[C@H](C)O2)[C@H](C)[C@@H](O[C@@H]2O[C@H](C)C[C@H](N(C)C)[C@H]2O)[C@](C)(O)C[C@@H](C)CN(C)[C@H](C)[C@@H](O)[C@]1(C)O [Azithromycin]"
value = 0.5

[[record]]
compound = "C[C@H]1[C@H](NC(=O)/C(=N\\OC(C)(C)C(=O)O)c2csc(N)n2)C(=O)N1S(=O)(=O)O [Aztreonam]"
value = 0.25


Turning to the following compound.
INPUT: API: value(readout= Antibiotic FIC, system= Klebsiella pneumoniae strain 1139, query= C[C@H]1COc2c(N3CCN(C)CC3)c(F)cc3c(=O)c(C(=O)O)cn1c23 [Levofloxacin] )
OUTPUT: 0.25

###

tested on: Enterobacter cloacae; experiment: microbe, parasite or virus in culture; type: cell-based; conditions: Enterobacter cloacae ATCC 13047; CAA supplemented with human serum
Hi! Just check whether MIC is below 4 µg/mL. Below gives met, equal or above gives not met.

Reference set, count: 5
[[record]]
polymer_sequence = "MSKKASRKSFTKGAVKVHKKNVPTRVPMRGGIRL [Gkh2]"
assigned_category = "not met"

[[record]]
polymer_sequence = "MRKRMSKRVDKKVFRRTAASAKKINIDPKIYRGGIRL [Osp1]"
assigned_category = "not met"

[[record]]
polymer_sequence = "MARRKKMKGKRDKRVFKQTANKTKAINISPKNMRGGTRL [Unp3]"
assigned_category = "not met"

[[record]]
polymer_sequence = "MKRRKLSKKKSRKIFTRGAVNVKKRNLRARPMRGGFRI [Chp10]"
assigned_category = "met"

[[record]]
polymer_sequence = "MKRRKMTRKGSKRLFTATADKTKSINTAPPPMRGGIRL [Chp7]"
assigned_category = "not met"


INPUT: Field: below-cutoff. Rule: recorded MIC strictly less than 4 µg/mL. Subject: MSKKRSRMSRRRSKKLFSKTALRTKSVNTRPPMRGGFRF [Chp8]
OUTPUT: not met

INPUT: Field: below-cutoff. Rule: recorded MIC strictly less than 4 µg/mL. Subject: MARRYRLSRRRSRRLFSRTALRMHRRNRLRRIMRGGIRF [Chp4]
OUTPUT: met

###

tested on: Acinetobacter baumannii; test: microbe, parasite or virus in culture; format: cell-based; settings: A. baumannii isolates (n per peptide in table)
The following sequences are shown together with reported MIC50 values.

Some solved cases for reference:
[[record]]
polymer_sequence = "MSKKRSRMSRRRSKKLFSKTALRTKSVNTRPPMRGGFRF [Chp8]"
observed_property = "MIC50"
value = "0.5 mg/L"

[[record]]
polymer_sequence = "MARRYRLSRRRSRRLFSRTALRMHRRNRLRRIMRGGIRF [Chp4]"
observed_property = "MIC50"
value = "0.5 mg/L"

[[record]]
polymer_sequence = "MARRKKMKGKRDKRVFKQTANKTKAINISPKNMRGGTRL [Unp3]"
observed_property = "MIC50"
value = ">8 mg/L"

[[record]]
polymer_sequence = "MARSRRRMSKRSSRRSFRKYAKSHKKNFKARSMRGGIRL [Ecp2]"
observed_property = "MIC50"
value = "0.25 mg/L"

[[record]]
polymer_sequence = "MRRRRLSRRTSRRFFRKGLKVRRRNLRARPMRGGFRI [Unp2]"
observed_property = "MIC50"
value = "0.5 mg/L"

[[record]]
polymer_sequence = "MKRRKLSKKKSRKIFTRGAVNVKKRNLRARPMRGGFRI [Chp10]"
observed_property = "MIC50"
value = "0.5 mg/L"


INPUT: Sample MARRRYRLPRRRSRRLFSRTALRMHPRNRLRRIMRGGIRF [Chp6] — what was its MIC50?
OUTPUT: 0.25 mg/L

INPUT: Sample MLTVWSDTPTIKRRKDMYRKRMSRKKSKKVFAKTAMKVNKRNHVKPMRGGYRI [Gkh3] — what was its MIC50?
OUTPUT: 0.5 mg/L
